tested on: E. faecalis ICB 27159; type: cell-based, Enterococcus faecalis; conditions: ICB 27159
*1 amine or outer side, *2 acyl side, *3 side chain or, on linkers, in order; H or OH if unused. Where a SMILES comes first, the peptide text is derived from it. Bridges are numbered along the chain shown (N, C = ends). [ ]: non-standard residue; d: D form. The star is where a group is joined. Phe(3R-OH) = O=C([C@@H](N[*:1])[C@H](O[*:3])c1ccccc1)[*:2]; Asn(3S-OH) = NC(=O)[C@@H](O)[C@H](N)C(=O)O; Leu(3R-OH) = CC(C)[C@@H](O)[C@H](N)C(=O)O; dAla(TMS) = C[Si](C)(C)C[C@@H](N)C(=O)O; aThr = C[C@H](O)[C@H](N)C(=O)O; Aic = NC1(C(=O)O)Cc2ccccc2C1; dOrn = NCCC[C@@H](N)C(=O)O; Cbz = O=C(OCc1ccccc1)*; tBu = CC(C)(C)*
Hi there, I'd appreciate the recorded MIC E. faecalis ICB 27159 for every entry that follows.
Please state the figure in µg/mL; there is no need to write the unit.

Q: Find the measured MIC E. faecalis ICB 27159: item CC[C@H](C)[C@@H]1NC(=O)[C@@H](CCCNC(=N)N)NC(=O)[C@H](CC(C)C)NC(=O)[C@H]([C@H](O)C(C)C)NC(=O)[C@@H](NC(=O)[C@H](Cc2ccccc2)NC(=O)[C@H](N)CC(C)C)[C@@H](c2ccccc2)OC(=O)[C@H](CO)NC(=O)[C@H]([C@H](O)C(N)=O)NC(=O)CNC(=O)[C@H]([C@H](C)O)NC1=O.O=C(O)C(F)(F)F.O=C(O)C(F)(F)F [Example 74] (H-[dL]F[Phe(3R-OH)][Leu(3R-OH)]L[dR]I[aThr]G[Asn(3S-OH)]S; ester 3-C) , target or system E. faecalis ICB 27159.
Result: 1

Q: For the record CC[C@H](C)[C@@H]1NC(=O)[C@@H](CCCNC(=N)N)NC(=O)[C@H](CC(C)C)NC(=O)[C@H]([C@H](O)C(C)C)NC(=O)[C@@H](NC(=O)[C@H](CC(C)C)NC(=O)[C@H](N)CCCNC(=O)OCc2ccccc2)[C@@H](c2ccccc2)OC(=O)[C@H](CO)NC(=O)[C@H]([C@H](O)C(N)=O)NC(=O)CNC(=O)[C@H]([C@H](C)O)NC1=O [Example 62] (H-[dOrn](Cbz)L[Phe(3R-OH)][Leu(3R-OH)]L[dR]I[aThr]G[Asn(3S-OH)]S; ester 3-C) , what value of MIC E. faecalis ICB 27159 is listed for E. faecalis ICB 27159?
Result: 1

Q: Fill in the recorded MIC E. faecalis ICB 27159 for this compound, with E. faecalis ICB 27159 as test system: CC[C@H](C)[C@@H]1NC(=O)[C@@H](CCCNC(=N)N)NC(=O)[C@H](CC(C)C)NC(=O)[C@H]([C@H](O)C(C)C)NC(=O)[C@@H](NC(=O)[C@H](CC(C)C)NC(=O)C2(N)Cc3ccccc3C2)[C@@H](c2ccccc2)OC(=O)[C@H](CO)NC(=O)[C@H]([C@H](O)C(N)=O)NC(=O)CNC(=O)[C@H]([C@H](C)O)NC1=O [Example 18] (H-[Aic]L[Phe(3R-OH)][Leu(3R-OH)]L[dR]I[aThr]G[Asn(3S-OH)]S; ester 3-C)
Result: 1

Q: Test system E. faecalis ICB 27159; read-out MIC E. faecalis ICB 27159; what value for CC[C@H](C)[C@@H]1NC(=O)[C@@H](CCCNC(=N)N)NC(=O)[C@H](CC(C)C)NC(=O)[C@H]([C@H](O)C(C)C)NC(=O)[C@@H](NC(=O)[C@H](CC(C)C)NC(=O)[C@H](N)COC(C)(C)C)[C@@H](c2ccccc2)OC(=O)[C@H](CO)NC(=O)[C@H]([C@H](O)C(N)=O)NC(=O)CNC(=O)[C@H]([C@H](C)O)NC1=O [Example 47] (H-[dS](tBu)L[Phe(3R-OH)][Leu(3R-OH)]L[dR]I[aThr]G[Asn(3S-OH)]S; ester 3-C) ?
Result: 2

Q: // lookup MIC E. faecalis ICB 27159 | system=E. faecalis ICB 27159 | key= CC[C@H](C)[C@@H]1NC(=O)[C@@H](CCCNC(=N)N)NC(=O)[C@H](CC(C)C)NC(=O)[C@H]([C@H](O)C(C)C)NC(=O)[C@@H](NC(=O)[C@H](CC(C)C)NC(=O)[C@H](N)C[Si](C)(C)C)[C@@H](c2ccccc2)OC(=O)[C@H](CO)NC(=O)[C@H]([C@H](O)C(N)=O)NC(=O)CNC(=O)[C@H]([C@H](C)O)NC1=O [Example 59] (H-[dAla(TMS)]L[Phe(3R-OH)][Leu(3R-OH)]L[dR]I[aThr]G[Asn(3S-OH)]S; ester 3-C)
Result: 0.25
